The values you see were collected from ChEMBL document CHEMBL3433997.

Exercise: state measured inhibition for each of the compounds provided.
# targetUnderTest: Solute carrier family 2, facilitated glucose transporter member 1 (Homo sapiens)
# assay: ST_JUDE_LEISH: Cytotoxicity at 2uM final concentration against transgenic Leishmania Mexicana promastigotes LmGLUT1 that are glucose transport deficient and complemented with the human glucose transporter GLUT1. Activity is measured by DNA content using SYBR green in vitro
# Assay type: functional
One number for each entry, in %.

I need inhibition for every entry listed below, if you could help.
1. COc1ccc(Cl)cc1NC(=O)Nc1cc(C)nc2ccccc12
2. COc1ccc(NC(=O)c2ccc(-c3cccc(OCc4ccccc4)c3)cc2)cc1N1CCN(C)CC1

1. 7.32
2. 1.72

Please give inhibition for each item listed below.
1. O=S(=O)(NC1CCN(c2ccnc3ccccc23)C1)c1ccc(OC(F)(F)F)cc1 (centres undefined)
2. COc1ccc2nccc([C@@H](O)CN3CCC(NCc4nc5ccccc5s4)CC3)c2c1

1. 2.25
2. 4.29
